Target: human 11β-HSD1 (Homo sapiens, UniProt P28845)
Construct: expressed in transfected cells; host or cells: CHO cells (microsomes)
Sequence (P28845 whole entry): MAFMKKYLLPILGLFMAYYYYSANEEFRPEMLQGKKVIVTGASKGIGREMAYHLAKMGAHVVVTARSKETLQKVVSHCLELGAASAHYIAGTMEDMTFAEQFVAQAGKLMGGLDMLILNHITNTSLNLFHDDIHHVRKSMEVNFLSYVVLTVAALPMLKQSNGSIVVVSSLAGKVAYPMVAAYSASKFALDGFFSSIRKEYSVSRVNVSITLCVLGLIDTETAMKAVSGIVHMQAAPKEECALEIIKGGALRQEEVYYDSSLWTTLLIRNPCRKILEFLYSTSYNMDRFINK
Test: Inhibition of microsomal preparation of 11β-HSD1 (SPA, Biological Test Example 1)
Format: biochemical
Settings: 100 nM
test-readout: inhibition at 0.1 µM (%)

INSERT INTO assay_data (molecule, data_value) VALUES
  ('O=C(O)CC1CC2(CCN(C(=O)CCc3ccccc3C(F)(F)F)CC2)c2c(Cl)cccc21 (centres unmarked) [EXAMPLE 73]', 96.6),
  ('CN1C(=O)C2(CCN(C(=O)Cc3ccccc3C(F)(F)F)CC2)c2ccccc21 [EXAMPLE 48]', 80.6),
  ('O=C(O)CC1CC2(CCN(C(=O)CCc3ccccc3C(F)(F)F)CC2)c2c(Br)cccc21 (single isomer, unassigned) [EXAMPLE 70.2]', 95.7),
  ('CNC(=O)NC1CC2(CCN(C(=O)/C=C/c3ccccc3C(F)(F)F)CC2)c2c(Br)cccc21 (racemic) [EXAMPLE 19]', 98.1),
  ('CN1C(=O)C2(CCN(C(=O)CCc3ccccc3C(F)(F)F)CC2)c2ccccc21 [EXAMPLE 69]', 93.5);
